- System: A498 renal
- assay_info: NCI tumour cell line growth inhibition, 48 h
Give TGI for every item shown.

The cases that follow already have their TGI on record.
[C-]#[O+].[Cl][Sn]([Cl])[Cl].[Cl][Sn]([Cl])[Cl].[Pt].c1ccncc1	> 100 µM
Cc1nc2ccccc2c(=O)n1CC(=O)O	> 100 µM
O=C(O)c1cc(=O)[nH]c(=S)[nH]1	> 100 µM
COc1cccc(C2C3=C(COC3=O)N(CCO)c3cc4c(cc32)OCCO4)c1 (configuration not stated)	0.276 µM
Cc1cc(C(=O)N2CCN(Cc3ccccc3)CC2)c(C)o1	> 100 µM
O=C(O)C#CCO	> 100 µM

Record TGI for all entries; do not skip any.
1. c1ccc2c(c1)nc1n2CSC1
2. [N-]=[N+]=Nc1c([N+](=O)[O-])c(Cl)nc2ccccc12
3. c1ccc2c3c([nH]c2c1)C1c2[nH]c4ccccc4c2CCN1CC3

Out:
1: > 100 µM; 2: 26.8 µM; 3: 34.4 µM

I need TGI for every entry listed below, if you could help.
1. COc1cc(C2CC(c3cc(C)ccc3C)=NN2c2ccc(S(=O)(=O)NC(=O)NCc3ccccc3)cc2)cc(OC)c1OC (configuration not stated)
2. CCC1CC(=O)N(SCC(N)C(=O)O)C1=O (configuration not stated)
3. O=C(Nc1ccccc1Br)c1cccc([N+](=O)[O-])c1O

Out:
9.03 µM
> 100 µM
9.05 µM

* * *

- System: HL-60(TB) leukemia
- assay_info: NCI tumour cell line growth inhibition, 48 h
Kindly state TGI for each of the entries shown.

CC(=O)Nc1cc2c(cc1O)CC[C@@H]1[C@@H]2CC[C@]2(C)[C@@H](O)CC[C@@H]12	> 100 µM
COc1cc2c3c(n(C)c(=O)c2cc1OC)-c1cc2c(cc1/C3=C\CCCBr)OCO2	> 100 µM
O=c1c2ccccc2nc(-c2ccccc2)n1NC(=S)Nc1ccc(Cl)cc1[N+](=O)[O-]	> 100 µM

I need TGI for every entry listed below, if you could help.
1. O=C(/C=C(\Nc1ccccc1O)c1ccccc1)C(=O)NC12CC3CC(CC(C3)C1)C2
2. CCN(CC)CCNC(=O)c1cccc2cc3ccccc3nc12

Out:
1. > 10 µM
2. 24.4 µM

* * *

- System: OVCAR-4 ovarian
- assay_info: NCI tumour cell line growth inhibition, 48 h
Give GI50 for every item shown.

N#Cc1cccc(NC(=O)c2oc3ccccc3c2-c2cnn(-c3ccccc3)c2)c1	193 µM
CCOc1ccc(/C=C/[N+](=O)[O-])cc1	23.4 µM
CC[O-].Cc1ccc2cccc([O-])c2n1.Cc1ccc2cccc([O-])c2n1.Cc1ccc2cccc([O-])c2n1.[Ti+4]	25 µM

Dear colleague, could you please provide GI50 for the molecules listed below?
1. OC(COc1cccc2ccccc12)CN1CCN(c2ccccc2)CC1 (stereo unspecified)
2. COc1ccc(C2=C(c3cc(OC)c(OC)c(OC)c3)C(=O)CC2)cc1
3. O=C1/C(=C/c2ccccc2)CCC/C1=C\c1ccccc1

Out:
1. 14.1 µM
2. 0.689 µM
3. 6.18 µM

* * *

- Tested on: DU-145 prostate
- assay_info: NCI tumour cell line growth inhibition, 48 h; in the data active means GI50 below about 0.43 µM; inactive means the rest
Choose one outcome from this list and give only that: true (active), false (inactive)

CC(=O)OC[C@]12CC[C@@H]([C@@H](C)C(N)=O)[C@@H]1[C@H]1CC[C@@H]3[C@@]4(C)CC[C@H](OC(C)=O)C(C)(C)[C@@H]4CC[C@@]3(C)[C@]1(C)CC2	false
O=C1/C(=C\c2coc3ccccc3c2=O)c2ccccc2N1c1c(Cl)cccc1Cl	false
CCCN(CCC)CCCNC(=O)c1cc2c(-c3ccc(OC)c(OC)c3)nn(C)c2s1	false

Shifting focus to the compound that follows.
In: Dear all, I need the recorded test outcome for `COc1ccc(/C=C\c2cc(OC)c(OC)c(OC)c2)cc1OC(=O)c1cccc(Cn2cc(CCOC(=O)c3cccc(Cn4nnc5c4C(=O)c4ccccc4C5=O)c3)nn2)c1` , thank you.
Out: true

All values here come from PubChem BioAssay (NCI).
